target: cAMP and cAMP-inhibited cGMP 3',5'-cyclic phosphodiesterase 10A (Homo sapiens, UniProt Q9Y233); experiment: Inhibition of human recombinant PDE10A expressed in baculovirus-SF21 cell system assessed as hydrolysis of [3H]cAMP after 1 hr by liquid scintillation counting
Sequence (Q9Y233 whole entry): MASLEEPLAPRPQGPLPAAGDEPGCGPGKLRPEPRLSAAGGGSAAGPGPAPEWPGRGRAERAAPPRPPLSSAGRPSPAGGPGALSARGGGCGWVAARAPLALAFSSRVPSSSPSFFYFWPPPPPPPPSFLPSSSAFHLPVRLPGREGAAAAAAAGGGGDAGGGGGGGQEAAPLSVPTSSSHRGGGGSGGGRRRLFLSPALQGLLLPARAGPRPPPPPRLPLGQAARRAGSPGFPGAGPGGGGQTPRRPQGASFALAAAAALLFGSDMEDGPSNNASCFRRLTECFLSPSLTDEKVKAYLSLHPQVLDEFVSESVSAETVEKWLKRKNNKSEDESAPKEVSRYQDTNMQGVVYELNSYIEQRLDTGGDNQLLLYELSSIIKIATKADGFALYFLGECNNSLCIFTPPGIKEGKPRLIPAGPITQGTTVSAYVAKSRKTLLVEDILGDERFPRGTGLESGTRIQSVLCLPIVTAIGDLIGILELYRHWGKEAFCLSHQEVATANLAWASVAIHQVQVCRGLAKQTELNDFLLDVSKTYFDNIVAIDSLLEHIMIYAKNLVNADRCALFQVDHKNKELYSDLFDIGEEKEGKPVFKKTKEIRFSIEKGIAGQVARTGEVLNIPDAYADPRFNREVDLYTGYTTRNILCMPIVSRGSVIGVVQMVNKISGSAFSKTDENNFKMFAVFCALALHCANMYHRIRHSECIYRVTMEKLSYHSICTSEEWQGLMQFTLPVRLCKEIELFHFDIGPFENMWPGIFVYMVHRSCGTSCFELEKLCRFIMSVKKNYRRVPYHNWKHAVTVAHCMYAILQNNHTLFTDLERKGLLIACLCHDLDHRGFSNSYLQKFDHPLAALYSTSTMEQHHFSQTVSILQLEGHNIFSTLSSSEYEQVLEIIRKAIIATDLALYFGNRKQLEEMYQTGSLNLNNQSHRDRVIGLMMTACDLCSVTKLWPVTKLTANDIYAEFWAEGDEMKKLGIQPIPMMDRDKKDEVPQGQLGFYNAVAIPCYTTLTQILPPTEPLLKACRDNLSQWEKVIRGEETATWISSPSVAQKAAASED
pIC50: −log10 of the molar value.
observable: pIC50

| compoundStructure | pIC50 |
| --- | --- |
| CCCc1nc(C)c2c(NC(=O)NC(C)C)nc3ccc(OC)nc3n12 | 6.42 |
| CCc1nc(C)c2c(OC)nc3ccc(OC)nc3n12 | 7.20 |
| CCCc1nc(C)c2cnc3ccc(OC)nc3n12 | 7.47 |
| CCCc1nc(C)c2c(C(F)F)nc3ccc(OC)nc3n12 | 8.13 |
| CCCc1nc(C)c2c(N(S(C)(=O)=O)S(C)(=O)=O)nc3ccc(OC)nc3n12 | 7.82 |

[A] COc1ccc2nc(OC)c3c(C)nc(C)n3c2n1
[B] CCCc1nc(C)c2c(OC)nc3ccc(OC)nc3n12
[C] CCCc1nc(C)c2c(NC(=O)CC)nc3ccc(OC)nc3n12
[D] CCCc1nc(C)c2c(N(C)C)nc3ccc(OC)nc3n12
Could you please sort these 4 entries by pIC50 from high to low? Please respond with the labels ordered as the question requires.
B, D, A, C

[a] CCCc1nc(C)c2c(NS(=O)(=O)CC)nc3ccc(OC)nc3n12
[b] CCCc1nc(C)c2c(C#N)nc3ccc(OC)nc3n12
Hello, I am sorting some records. Could you say if a or b has the smaller pIC50 value? Lab log: write the label of the selected item as the result.
a
(a: 7.41, b: 7.96)
